Test system: AncSZ
Assay: phosphorylation enrichment, bacterial display (enrichment ratio); higher = better substrate or ligand; peptides without Tyr show the background;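 also: 11-residue human phosphosite peptides and single-mutation variants displayed on the E. coli surface, counted by deep sequencing, each peptide's frequency after selection divided by its frequency in the unselected input library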;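 also: frequency after pTyr selection over input frequency; kinase dosed for 20-30% of maximal phosphorylation in three min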
REPORTED ENDPOINT: phosphorylation enrichment
One number for each entry.

# SEQUENCE CHAIN, phosphorylation enrichment
data = [
    ("RPSELYFSKIS [SMG1_Y2253_G2258S_YF]", 0.933),
    ("IYQASYYRRGD [LTK_Y676_R673Q]", 0.822),
    ("PPSGEYFGHCG [TRIP6_Y275_Q278H]", 1.69),
]

Respectfully, I request phosphorylation enrichment for each entry included below.
1. DKEKWYPLGNS [PIK3C2G_Y1438]
2. EGTATYAAAIL [JUP_Y644_V648I]
3. DGTGRYLCNAC [GATA5_Y208_H207R]

[0.762, 0.857, 0.552]

* * *

System: Fer (mouse)
Assay: phosphorylation enrichment, bacterial display (enrichment ratio); higher = better substrate or ligand; peptides without Tyr show the background
REPORTED ENDPOINT: phosphorylation enrichment
Give bare numbers.

Below, 5 sequences whose answers are already recorded.
# SEQUENCE CHAIN, REPORTED RESULT
data = [
    ("DLDPNYVLSSR [CKM_Y125]", 0.394),
    ("LYYYSYLLKNH [PTEN_Y180_V175L]", 0.959),
    ("MFCAGYDTKQE [F10_Y407]", 0.652),
    ("GLDGSYLLTDS [SH2D1A_Y29_R32T]", 0.455),
    ("SGETEYNPTEA [NBEAL2_Y2748]", 0.604),
]

Respectfully, I request phosphorylation enrichment for each entry included below.
1. PSDLLYILDIQ [ITGA2B_Y845]
2. STSFDYCRVPM [BST2_Y8_YF]

1. 1.32
2. 0.827

Respectfully, I request phosphorylation enrichment for each entry included below.
1. KALKQYRASPS [DDX27_Y763_G766S]
2. GIYSGYDDAWD [POLR1C_Y36_N32I]
3. SSQTVYQRVEG [TFR2_Y23]
4. MPVDGYISGLL [PAK6_Y81]
5. QIGRKYKKVRF [F8_Y442_R437Q]

0.368
1.46
0.517
0.522
0.836

Respectfully, I request phosphorylation enrichment for each entry included below.
1. VIEQRYNETWL [SLC2A4_Y56_S55R]
2. SKDSAYVTWEP

0.457
1.65

Respectfully, I request phosphorylation enrichment for each entry included below.
1. LGSVVYAHSKE [KCNQ2_Y226]
2. FSGQVYRQRRK [TH_Y230_D227G]

0.416
0.582

* * *

Molecular target: MERTK (UniProt Q12866)
Sequence (Q12866 whole entry, looked up): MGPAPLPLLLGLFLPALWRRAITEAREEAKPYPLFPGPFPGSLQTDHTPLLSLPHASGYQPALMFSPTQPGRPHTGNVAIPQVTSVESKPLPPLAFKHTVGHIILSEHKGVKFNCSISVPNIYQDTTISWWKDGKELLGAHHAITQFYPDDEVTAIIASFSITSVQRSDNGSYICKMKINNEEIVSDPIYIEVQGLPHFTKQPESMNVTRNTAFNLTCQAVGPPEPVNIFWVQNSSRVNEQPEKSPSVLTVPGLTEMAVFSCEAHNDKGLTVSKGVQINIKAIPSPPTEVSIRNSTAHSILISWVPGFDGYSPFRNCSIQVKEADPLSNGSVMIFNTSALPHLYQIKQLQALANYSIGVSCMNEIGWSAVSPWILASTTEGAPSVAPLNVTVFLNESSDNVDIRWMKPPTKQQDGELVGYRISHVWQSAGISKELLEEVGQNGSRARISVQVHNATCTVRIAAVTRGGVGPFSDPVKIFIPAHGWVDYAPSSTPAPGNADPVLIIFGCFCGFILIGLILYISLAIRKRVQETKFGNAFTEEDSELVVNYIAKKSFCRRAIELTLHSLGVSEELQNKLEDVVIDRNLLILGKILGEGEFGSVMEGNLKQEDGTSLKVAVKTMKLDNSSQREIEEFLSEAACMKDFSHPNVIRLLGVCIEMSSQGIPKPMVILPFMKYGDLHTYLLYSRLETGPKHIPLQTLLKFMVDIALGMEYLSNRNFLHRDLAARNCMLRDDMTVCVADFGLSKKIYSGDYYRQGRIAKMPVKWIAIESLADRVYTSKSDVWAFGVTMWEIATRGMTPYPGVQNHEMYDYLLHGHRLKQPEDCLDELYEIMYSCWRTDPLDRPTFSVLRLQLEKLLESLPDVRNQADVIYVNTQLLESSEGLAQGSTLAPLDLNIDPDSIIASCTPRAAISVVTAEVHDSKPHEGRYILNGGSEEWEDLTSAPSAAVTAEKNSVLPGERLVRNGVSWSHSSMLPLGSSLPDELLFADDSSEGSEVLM
Assay: phosphorylation enrichment, bacterial display (enrichment ratio); higher = better substrate or ligand; peptides without Tyr show the background
Output 1 for phosphorylation enrichment not less than 0.5; output 0 otherwise.

Record excerpt, results attached:
# SEQUENCE CHAIN, TGT, ASSIGNED CATEGORY
data = [
    ("FTRNYYVQAVL [CYBA_Y88_R90Q]", "MERTK (UniProt Q12866)", 1),
    ("KRGIDYILWHM [FRMD1_Y225_R228W]", "MERTK (UniProt Q12866)", 1),
    ("SSAETYSRMRL [NBEAL2_Y1835]", "MERTK (UniProt Q12866)", 0),
]

Tell me whether phosphorylation enrichment is at least 0.5 here: SVTCTYTPALN [TP53_Y126_S127T]
0

Tell me whether phosphorylation enrichment is at least 0.5 here: IRFPPYTDWNQ [ALDH3B2_Y365_H361R_YF]
0

Tell me whether phosphorylation enrichment is at least 0.5 here: RAHARYCADAC [ACOT4_Y52_R57C]
0

Tell me whether phosphorylation enrichment is at least 0.5 here: VFDMLYQLANL [USP24_Y1087]
1

Tell me whether phosphorylation enrichment is at least 0.5 here: STKPQYQPGEN [SRC_Y530_E527K]
0

Tell me whether phosphorylation enrichment is at least 0.5 here: VVVTKYCKEEL [ATP7B_Y1078_A1074V]
0

Tell me whether phosphorylation enrichment is at least 0.5 here: VMSGPYELKAL [IL1B_Y140]
0

Tell me whether phosphorylation enrichment is at least 0.5 here: PNRILYGDFRQ [MYH6_Y717]
1

Tell me whether phosphorylation enrichment is at least 0.5 here: SRDDYYETIAM [NPY1R_Y347_D346Y]
0

Tell me whether phosphorylation enrichment is at least 0.5 here: CDKEFYSVHNK [MET_Y1235_Y1230C_YF]
0

Tell me whether phosphorylation enrichment is at least 0.5 here: QRTMKYTTATG [MCCC1_Y41]
1

Tell me whether phosphorylation enrichment is at least 0.5 here: SVTSTYSPALN [TP53_Y126_C124S]
0

Tell me whether phosphorylation enrichment is at least 0.5 here: VDSNPYSRLMA [UBA5_Y53]
1

Tell me whether phosphorylation enrichment is at least 0.5 here: INVTIYGKTFR [EFHC1_Y177_I174V]
1

Tell me whether phosphorylation enrichment is at least 0.5 here: RQRTAYFSLNT [CDH1_Y68_D72N]
1

Tell me whether phosphorylation enrichment is at least 0.5 here: NETNKYQISVN [FGB_Y368_A365T]
0

Tell me whether phosphorylation enrichment is at least 0.5 here: ANVKWYRNGRE
0

Just for reference, the supplement of paper PMC10065799 is where these values come from.
